experimentalTarget: T1, StpA-CTD (Escherichia coli, UniProt P0ACG1 90-134)
T1 chain: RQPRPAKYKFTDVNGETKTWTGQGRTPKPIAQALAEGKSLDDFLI
assayInfo: ITC; 25 C; n=2.33; 50 mM BisTris, 25 mM NaCl, pH 6.4; ITC at 5 and 25 C (40 uM RNA in cell, StpA-CTD 400/800/920 uM injected); NMR with 10% D2O, titration at 25 C
conditions: protein: recombinant; tags: none (His6-SUMOstar removed by SUMO protease); chain copies: 2; hairpin, locked 3'-fold

{"binder": "GACCGGAAGGUCCGCCUUCC (structured_RNA, N6-dimethyladenosine at A2) [A2-DMA]", "unitsLabel": "µM", "Kd": 13.6}
